This section presents compounds with their documented MIC values.
Test system: Enterococcus faecalis
Assay: Antibacterial activity against Enterococcus faecalis SR7914 (VRE)
Format: functional
Enter your answer as a number in µg/mL; do not include the unit.

CCCCCCCCCCCCCCC[C@H](NC(=O)[C@@H](N)CCCNC(=N)N)C(=O)NC[C@@H]1CC[C@H]2C(C(=O)N1)[C@H]([C@H]1O[C@@H](n3ccc(=O)[nH]c3=O)[C@H](O)[C@@H]1O)ON2CCCN (single isomer, unassigned): 16
CCCCCCCCCCCCCCCC(=O)NC[C@@H]1CC[C@H]2C(C(=O)N1CCCNC(=N)N)[C@H]([C@H]1O[C@@H](n3ccc(=O)[nH]c3=O)[C@H](O)[C@@H]1O)ON2CCCN (single isomer, unassigned): 16
CCCCCCCCCCCCCCCCC[C@@H]1CN[C@@H]([C@H](O[C@@H]2O[C@H](CN)[C@@H](O)[C@H]2O)[C@H]2O[C@@H](n3ccc(=O)[nH]c3=O)[C@H](O)[C@@H]2O)C(=O)N(C)[C@@H]1C(=O)O: 16
CCCCCCCCCCCCCCCC(=O)OC[C@@H]1[C@H](C(N)=O)[C@@H]([C@H]2O[C@@H](n3ccc(=O)[nH]c3=O)[C@H](O)[C@@H]2O)ON1CCCN: 8
CCCCCCCCCCCCCCCC(=O)OC[C@@H]1[C@H](C(=O)N(C)C)[C@@H]([C@H]2O[C@@H](n3ccc(=O)[nH]c3=O)[C@H](O)[C@@H]2O)ON1CCCN: 4

Given CCCCCCCCCCCCCC(=O)N[C@@H]1CCN[C@@H]([C@H](O[C@@H]2O[C@H](CN)[C@@H](O)[C@H]2O)[C@H]2O[C@@H](n3ccc(=O)[nH]c3=O)[C@H](O)[C@@H]2O)C1 , respond with its MIC.
2
